# Test Name: Ability to reverse action of CpG-ODN on WEHI 231 murine B-cell lymphoma cells
# Assay type: functional, cell-based, Mus musculus
Readout Kind: Log 1/EC50

// known answers, use as guide
{"Compound": "CN(C)CCCCNc1cc(-c2ccc(N3CCN(C)CC3)cc2)nc2ccccc12", "Log 1/EC50": 8.91}
{"Compound": "Cc1cccc(-c2cc(NCCN(C)C)c3ccccc3n2)c1", "Log 1/EC50": 7.74}
{"Compound": "CN(C)CCNc1cc(-c2ccc(N3CCN(C)CC3)cc2)nc2ccccc12", "Log 1/EC50": 9.12}
{"Compound": "Cc1cccc(-c2cc(NCCC3CCCN3C)c3ccccc3n2)c1 (configuration not stated)", "Log 1/EC50": 7.85}
{"Compound": "CN1CCN(CCNc2cc(-c3ccc(N4CCN(C)CC4)cc3)nc3ccccc23)CC1", "Log 1/EC50": 8.82}

[P] CCN1CCCC1CNc1cc(-c2cccc(C)c2)nc2ccccc12 (configuration not stated)
[Q] OCCCCCNc1cc(-c2ccc(F)cc2)nc2ccccc12
### Prompt Which item exceeds the other in Log 1/EC50, P or Q ? # respond with the chosen item's label
### Response P

Origin of values: ChEMBL document CHEMBL1136744
